From: patent US20050176813A1

Target: UniProt:P22001
Sequence (P22001 whole entry): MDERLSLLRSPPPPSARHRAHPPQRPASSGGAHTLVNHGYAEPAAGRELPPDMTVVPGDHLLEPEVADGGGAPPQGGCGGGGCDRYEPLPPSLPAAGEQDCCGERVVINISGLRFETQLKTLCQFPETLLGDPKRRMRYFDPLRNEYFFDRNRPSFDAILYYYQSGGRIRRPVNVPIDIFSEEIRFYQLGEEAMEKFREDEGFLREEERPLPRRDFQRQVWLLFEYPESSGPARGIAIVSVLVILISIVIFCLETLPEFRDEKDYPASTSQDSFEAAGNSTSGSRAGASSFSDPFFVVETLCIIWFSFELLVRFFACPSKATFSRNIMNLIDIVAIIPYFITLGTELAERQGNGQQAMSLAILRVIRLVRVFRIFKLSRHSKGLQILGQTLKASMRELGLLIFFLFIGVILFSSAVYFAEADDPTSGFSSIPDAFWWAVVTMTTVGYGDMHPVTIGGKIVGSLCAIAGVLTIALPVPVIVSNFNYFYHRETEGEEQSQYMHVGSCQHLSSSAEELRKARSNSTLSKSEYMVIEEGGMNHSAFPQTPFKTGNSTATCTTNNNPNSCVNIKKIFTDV
Assay: Kv1.3 channel block, estimated Kd (Table 1)
Assay type: binding
Settings: Kv1.3, end; read-out: Est. Kd, Kd end
pKd: −log10 of the molar value.
// bucketize pKd: Low: < 5; Medium: ≥ 5 and < 6; High: ≥ 6

// known answers, use as guide
Task: Form field 'band' for COc1c(C(=O)/C=C/c2ccc(C)cc2)c(O)c(OC)c2occc12 [Example 23]
Result: High

Task: Form field 'band' for COc1c(C(=O)/C=C/c2ccco2)c(O)c(OC)c2occc12 [Example 45]
Result: Medium

Task: Form field 'band' for COc1c(C(=O)/C=C/c2cc(Br)cs2)c(O)c(OC)c2occc12 [Example 54]
Result: High

Further cases:
Task: Form field 'band' for COc1c(C(=O)/C=C/c2ccc(N(C)C)cc2)c(O)c(OC)c2occc12 [Example 42]
Result: Medium

Task: Form field 'band' for COc1c(C(=O)/C=C/c2cccn2C)c(O)c(OC)c2occc12 [Example 52]
Result: Low

Task: Form field 'band' for COc1c(C(=O)/C=C/c2ccccc2)c(OCc2ccccc2)c(OC)c2occc12 [Example 60]
Result: High
